- assayOverview: Log P (octanol-water partition coefficient)
- experimentalSetup: octanol/water
quantityName: logP
Just the number.

>>> print(df.to_string())
                                   compound  testresult
0  CCCCCCCC/C=C\CCCCCCCC(=O)OC [Methyl Oleate, reference compound]           8
1  CCCCCCCC/C=C\CCCCCCCC(=O)OCCO [Ethyleneglycol monooleate]         6.9

Reported logP of CCCCC/C=C\C/C=C\CCCCCCCC(=O)O [Linoleic Acid, reference compound] : 6.4

Reported logP of CCCCCC/C=C\CCCCCCCC(=O)O [Palmitoleic Acid] : 6.6

Reported logP of CCCCCCCC/C=C\CCCCCCCCO [Oleyl Alcohol] : 7

Reported logP of CCCCCCCCCCCCCCCCCC(=O)O [Stearic Acid, reference compound] : 8

Reported logP of CCCCCCCC/C=C\CCCCCCCC(=O)O [Oleic acid] : 7

Reported logP of CCCCCCCC/C=C\CCCCCCCCCCCC(=O)O [Erucic acid, reference compound] : 9

Reported logP of CCCCCCCC/C=C\CCCCCCCC(=O)OCC(O)CO (stereo not drawn) [Glyceryl alpha-monooleate] : 6.3
